Assign Minimum growth inhibitory concentration to each entry below.
# Test system: Salmonella typhimurium CCARM 8013
# Type: cell-based
# Text: To compare the antimicrobial activity of the peptide produced by the method of Example 1, the inventors of the present invention measured the growth minimum inhibitory concentration (MIC), which is minimum concentration of the peptide showing no dissociation of bacterial cells. Specifically, the bacterial strain described in the following Table 2 was purchased and cultured in each medium to a mid-log phase. […]
Residues, ends and D or L forms follow the SMILES beside them.

The recorded Minimum growth inhibitory concentration for entry CC[C@H](C)[C@H](NC(=O)[C@H](Cc1c[nH]c2ccccc12)NC(=O)[C@H](CCCCN)NC(=O)[C@@H](NC(=O)[C@@H](N)CCCCN)[C@@H](C)CC)C(=O)N[C@@H](CC(C)C)C(=O)N[C@@H](CCCCN)C(=O)N[C@@H](Cc1ccc(O)cc1)C(=O)N[C@@H](Cc1c[nH]c2ccccc12)C(=O)N[C@@H](CCCCN)C(=O)N[C@@H](Cc1c[nH]c2ccccc12)C(=O)N[C@@H](CO)C(N)=O [Myxinidin 2, KIKWILKYWKWS-NH2] (H-KIKWILKYWKWS-NH2; N-terminus assumed) equals 16 µM

compound CC[C@H](C)[C@H](NC(=O)[C@H](Cc1c[nH]c2ccccc12)NC(=O)[C@H](CCCNC(=N)N)NC(=O)[C@@H](NC(=O)[C@@H](N)CCCNC(=N)N)[C@@H](C)CC)C(=O)N[C@@H](CC(C)C)C(=O)N[C@@H](CCCNC(=N)N)C(=O)N[C@@H](Cc1ccc(O)cc1)C(=O)N[C@@H](Cc1c[nH]c2ccccc12)C(=O)N[C@@H](CCCNC(=N)N)C(=O)N[C@@H](Cc1c[nH]c2ccccc12)C(=O)N[C@@H](CO)C(N)=O [Myxinidin 3, RIRWILRYWRWS-NH2] (H-RIRWILRYWRWS-NH2; N-terminus assumed) , Minimum growth inhibitory concentration observed: 4 µM

Entry CC[C@H](C)[C@H](NC(=O)CN)C(=O)N[C@@H](Cc1c[nH]cn1)C(=O)N[C@@H](Cc1c[nH]cn1)C(=O)N[C@H](C(=O)N[C@@H](CC(C)C)C(=O)N[C@@H](CCCCN)C(=O)N[C@@H](Cc1ccc(O)cc1)C(=O)NCC(=O)N[C@@H](CCCCN)C(=O)N1CCC[C@H]1C(=O)N[C@@H](CO)C(N)=O)[C@@H](C)CC [Myxinidin 1, GIHHILKYGKPS-NH2] (H-GIHHILKYGKPS-NH2; N-terminus assumed) ; Minimum growth inhibitory concentration = >32 µM

---

# PROTOCOL: in vitro
# Format: cell-based
# TEST_PARAMETERS: human, NHK cells (normal human keratinocytes)
Residues, ends and D or L forms follow the SMILES beside them.
OBSERVABLE: viability at 24 h, 6.25 µM (%)
Numeric only. Scale: %

The molecule listed as CC[C@H](C)[C@H](NC(=O)[C@H](Cc1c[nH]c2ccccc12)NC(=O)[C@H](CCCCN)NC(=O)[C@@H](NC(=O)[C@@H](N)CCCCN)[C@@H](C)CC)C(=O)N[C@@H](CC(C)C)C(=O)N[C@@H](CCCCN)C(=O)N[C@@H](Cc1ccc(O)cc1)C(=O)N[C@@H](Cc1c[nH]c2ccccc12)C(=O)N[C@@H](CCCCN)C(=O)N[C@@H](Cc1c[nH]c2ccccc12)C(=O)N[C@@H](CO)C(N)=O [Myxinidin 2, KIKWILKYWKWS-NH2] (H-KIKWILKYWKWS-NH2; N-terminus assumed) shows viability at 24 h, 6.25 µM equal to 100

---

# System: Salmonella typhimurium CCARM 8013
# Type: cell-based
Residues, ends and D or L forms follow the SMILES beside them.
OBSERVABLE: Minimum growth inhibitory concentration

Entry CC[C@H](C)[C@H](NC(=O)CN)C(=O)N[C@@H](Cc1c[nH]cn1)C(=O)N[C@@H](CC(=O)O)C(=O)N[C@H](C(=O)N[C@@H](CC(C)C)C(=O)N[C@@H](CCCCN)C(=O)N[C@@H](Cc1ccc(O)cc1)C(=O)NCC(=O)N[C@@H](CCCCN)C(=O)N1CCC[C@H]1C(=O)N[C@@H](CO)C(N)=O)[C@@H](C)CC [Myxinidin, GIHDILKYGKPS-NH2] (H-GIHDILKYGKPS-NH2) ; assay system Salmonella typhimurium CCARM 8013; Minimum growth inhibitory concentration recorded at >32 µM
